biological target: T1, human IL-2 (recombinant IL-2, Humanzyme) (human, UniProt P60568 21-153); assay: SPR as in Example 1 (IgG captured, IL-2 injected)
T1 construct: It may include the signal peptide; also called hIL-2; interleukin-2
T1 sequence (P60568 21-153 limits assumed): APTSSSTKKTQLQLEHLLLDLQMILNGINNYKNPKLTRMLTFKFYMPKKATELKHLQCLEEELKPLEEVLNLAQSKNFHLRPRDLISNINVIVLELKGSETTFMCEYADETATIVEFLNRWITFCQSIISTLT
Measured parameter: koff (s⁻¹)
Please reply with the bare figure in s⁻¹ and do not write the unit itself.

Record request: koff value, item F5.1.11.08 (antibody, V domains shown) VH: QLQLQESGPGLVKPSQTLSLTCTVSGGSISSGGYYWSWIRQHPGKGLEWIGYIYKSGSNYWNPSLKSRVTISVDTSKNQFSLKLSSVTAADTAVYYCARTPTVTGDWFDPWGRGTLVTVSS VL: NFMLTQPHSVSESPGKTVTISCTRSSGSIASNYVQWYQQRPGSSPTTVIYEDNQRPSGVPDRFSGSIDSSSNSASLTISGLKTEDEADYYCQTYDSIDVYFGGGTKLTVL 0.000453
